Where do these numbers come from? They come from ChEMBL document CHEMBL3616372.

- Experimental system: Sodium-dependent serotonin transporter (Homo sapiens)
- Assay comment: Inhibition of human SERT expressed in HEK293 cells using 4-[4-(Dimethylamino)phenyl]-1-methyl pyridinium as substrate assessed as fluorescent intensity at 1 uM after 3 hrs relative to control
- Assay type: cell-based
Readout kind: RFU
Give bare numbers.

{"Compound": "COC(=O)CCCNC(=O)/C=C/c1ccc(O)c(OC)c1", "Readout kind": "RFU", "Value reported": 1.07}

Working through the 5 compounds below one at a time, give RFU for each.
1. COc1cc([C@@H]2Oc3c(OC)cc(C(=O)O)cc3[C@H]2CO)ccc1O
2. COc1cc([C@H]2Oc3c(OC)cc(C(=O)O)cc3[C@@H]2CO)ccc1O
3. COC(=O)CCCNC(=O)/C=C\c1ccc(O)c(OC)c1
4. COc1cc(C[C@@H](CO)c2cc(C(=O)O)cc(OC)c2O)ccc1O
5. CN1c2ccccc2C(NCCCCCCC(=O)O)c2ccc(Cl)cc2S1(=O)=O (configuration not stated)

Return:
1: 1.03; 2: 1.01; 3: 1.08; 4: 0.997; 5: 1.11

Enquiry: Name the recorded RFU of CC(C)C[C@]12C[C@]3(O)O[C@@]1(OC(=O)C[C@H]2C)[C@H](O)[C@]3(C)O , assay system Sodium-dependent serotonin transporter (Homo sapiens).
Return: 0.883

---

- Experimental system: Sodium-dependent serotonin transporter (Homo sapiens)
- Assay comment: Inhibition of human SERT expressed in HEK293 cells using 4-[4-(Dimethylamino)phenyl]-1-methyl pyridinium as substrate assessed as fluorescent intensity at 0.1 uM after 3 hrs relative to control
- Type: cell-based
Lab note - cut at 1 for RFU: Condition met if strictly below, Condition not met if not.

Worked examples follow.
{"Smiles repr": "COC(=O)CCCNC(=O)/C=C\\c1ccc(O)c(OC)c1", "Experimental system": "Sodium-dependent serotonin transporter (Homo sapiens)", "Group label": "Condition not met"}
{"Smiles repr": "COc1cc([C@H]2Oc3c(OC)cc(C(=O)O)cc3[C@@H]2CO)ccc1O", "Experimental system": "Sodium-dependent serotonin transporter (Homo sapiens)", "Group label": "Condition not met"}

Now let's try a different one.
Enquiry: Hello, is RFU of the following compound strictly smaller than 1? CC(C)C[C@]12C[C@]3(O)O[C@@]1(OC(=O)C[C@H]2C)[C@H](O)[C@]3(C)O
Return: Condition met

---

I'd appreciate it if you could supply RFU values for the items below.
- Experimental system: Sodium-dependent serotonin transporter (Homo sapiens) (UniProt P31645)
- Sequence (P31645 whole entry, looked up): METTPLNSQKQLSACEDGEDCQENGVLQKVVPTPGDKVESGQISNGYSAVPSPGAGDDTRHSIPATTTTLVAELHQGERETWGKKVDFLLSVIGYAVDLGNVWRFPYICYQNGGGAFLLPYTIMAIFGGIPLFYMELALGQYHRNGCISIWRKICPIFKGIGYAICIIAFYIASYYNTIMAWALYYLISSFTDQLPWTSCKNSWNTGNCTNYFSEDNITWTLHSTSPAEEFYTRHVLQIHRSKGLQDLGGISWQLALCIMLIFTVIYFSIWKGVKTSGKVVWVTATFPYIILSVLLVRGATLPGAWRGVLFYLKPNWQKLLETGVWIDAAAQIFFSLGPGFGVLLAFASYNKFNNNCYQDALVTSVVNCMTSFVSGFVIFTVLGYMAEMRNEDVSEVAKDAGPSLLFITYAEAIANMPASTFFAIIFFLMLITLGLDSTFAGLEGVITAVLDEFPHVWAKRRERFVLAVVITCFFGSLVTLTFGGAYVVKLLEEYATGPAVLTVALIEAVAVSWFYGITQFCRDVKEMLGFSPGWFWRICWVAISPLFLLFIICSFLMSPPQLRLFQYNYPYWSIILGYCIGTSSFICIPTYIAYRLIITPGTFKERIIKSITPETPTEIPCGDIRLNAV
- Assay comment: Inhibition of human SERT expressed in HEK293 cells using 4-[4-(Dimethylamino)phenyl]-1-methyl pyridinium as substrate assessed as fluorescent intensity at 10 uM after 3 hrs relative to control
- Type: cell-based
Give bare numbers.

Below are worked cases with known answers.
{"Smiles repr": "COC(=O)CCCNC(=O)/C=C/c1ccc(O)c(OC)c1", "Value reported": 1.04}
{"Smiles repr": "COC(=O)CCCNC(=O)/C=C\\c1ccc(O)c(OC)c1", "Value reported": 1.06}
{"Smiles repr": "COc1cc([C@@H]2Oc3c(OC)cc(C(=O)O)cc3[C@H]2CO)ccc1O", "Value reported": 1.06}
{"Smiles repr": "COc1cc(C[C@@H](CO)c2cc(C(=O)O)cc(OC)c2O)ccc1O", "Value reported": 0.873}

Working through the 2 compounds below one at a time, give RFU for each.
1. COc1cc([C@H]2Oc3c(OC)cc(C(=O)O)cc3[C@@H]2CO)ccc1O
2. CC(C)C[C@]12C[C@]3(O)O[C@@]1(OC(=O)C[C@H]2C)[C@H](O)[C@]3(C)O

Return:
1. 1.09
2. 0.928
